test: Pharmacokinetics of clopidogrel and its metabolites with and without ritonavir; format: in vivo, human; settings: human, plasma, po, 300 mg, AUC0‐4h, after clopidogrel 300 mg oral; clopidogrel phase; geometric mean (geometric CV)
REPORTED ENDPOINT: AUC (ng·h/mL)
Answers are plain numbers, in ng·h/mL.

Reported AUC of COC(=O)[C@H](c1ccccc1Cl)N1CCc2sccc2C1 [Clopidogrel, clopidogrel, reference compound] : 8.53

---

experiment: Pharmacokinetics of clopidogrel and its metabolites with and without ritonavir; assay type: in vivo, human; conditions: human, plasma, po, 300 mg, t ½, after clopidogrel 300 mg oral; clopidogrel phase; geometric mean (geometric CV)
REPORTED ENDPOINT: half-life

Reported half-life of COC(=O)[C@H](c1ccccc1Cl)N1CCc2sccc2C1 [Clopidogrel, clopidogrel, reference compound] : 1.98 h

---

experiment: Pharmacokinetics of clopidogrel and its metabolites with and without ritonavir; type: in vivo, human; conditions: geometric mean ratio (90% CI)
So I've got a bunch of compounds here, and I need their t ½, clopidogrel and ritonavir phase to clopidogrel phase ratio values.

COMPOUND	VAL
O=C(O)[C@H]1O[C@@H](OC(=O)[C@H](c2ccccc2Cl)N2CCc3sccc3C2)[C@H](O)[C@@H](O)[C@@H]1O [Clopidogrel acyl‐β‐D‐glucuronide, clopidogrel acyl‐β‐D‐glucuronide]	0.71 (0.63–0.81); P = 0.0007
O=C(O)[C@H](c1ccccc1Cl)N1CCc2sccc2C1	0.83 (0.72–0.95); P = 0.03
COC(=O)[C@H](c1ccccc1Cl)N1CCc2sccc2C1 [Clopidogrel, clopidogrel, reference compound]	0.89 (0.72–1.11)

Reported t ½, clopidogrel and ritonavir phase to clopidogrel phase ratio of COC(=O)[C@H](c1ccccc1Cl)N1CC[C@@H](S)/C(=C\C(=O)O)C1 [Clopidogrel active metabolite] : 0.85 (0.66–1.08)

---

test: Pharmacokinetics of clopidogrel and its metabolites with and without ritonavir; assay type: in vivo, human; settings: geometric mean ratio (90% CI)
So I've got a bunch of compounds here, and I need their AUC0‐∞, clopidogrel and ritonavir phase to clopidogrel phase ratio values.

Take each entry in turn and give its AUC0‐∞, clopidogrel and ritonavir phase to clopidogrel phase ratio.
1. O=C(O)[C@H]1O[C@@H](OC(=O)[C@H](c2ccccc2Cl)N2CCc3sccc3C2)[C@H](O)[C@@H](O)[C@@H]1O [Clopidogrel acyl‐β‐D‐glucuronide, clopidogrel acyl‐β‐D‐glucuronide]
2. COC(=O)[C@H](c1ccccc1Cl)N1CC[C@@H](S)/C(=C\C(=O)O)C1 [Clopidogrel active metabolite]
3. COC(=O)[C@H](c1ccccc1Cl)N1CCc2sccc2C1 [Clopidogrel, clopidogrel, reference compound]
4. O=C(O)[C@H](c1ccccc1Cl)N1CCc2sccc2C1

Result:
1: 0.94 (0.71–1.23); 2: 0.77 (0.59–1.00); 3: 0.75 (0.39–1.43); 4: 0.94 (0.80–1.10)

---

assay: Pharmacokinetics of clopidogrel and its metabolites with and without ritonavir; format: in vivo, human; conditions: geometric mean ratio (90% CI)
REPORTED ENDPOINT: AUC0‐4h, clopidogrel and ritonavir phase to clopidogrel phase ratio

Some solved cases for reference:
COMPOUND	VAL
COC(=O)[C@H](c1ccccc1Cl)N1CCc2sccc2C1 [Clopidogrel, clopidogrel, reference compound]	0.75 (0.40–1.44)
O=C(O)[C@H]1O[C@@H](OC(=O)[C@H](c2ccccc2Cl)N2CCc3sccc3C2)[C@H](O)[C@@H](O)[C@@H]1O [Clopidogrel acyl‐β‐D‐glucuronide, clopidogrel acyl‐β‐D‐glucuronide]	1.11 (0.86–1.43)
O=C(O)[C@H](c1ccccc1Cl)N1CCc2sccc2C1 [Clopidogrel carboxylic acid, clopidogrel carboxylic acid]	1.04 (0.91–1.18)

Reported AUC0‐4h, clopidogrel and ritonavir phase to clopidogrel phase ratio of COC(=O)[C@H](c1ccccc1Cl)N1CC[C@@H](S)/C(=C\C(=O)O)C1 [Clopidogrel active metabolite] : 0.49 (0.39–0.61); P = 0.0001
